Assay: solvent given as SMILES
Conditions: in CC#N
quantity kind: emission maximum (nm)
Use nm as the unit, but write only the number.

compound: N#Cc1ccc(/C=C2\OC(=O)c3cc(N)ccc32)cc1
assay result: 485.44

compound: Cc1ccc2nc(/C=C/c3ccc(N(C)C)cc3)c(-c3ccccc3)nc2c1
assay result: 614

compound: CN(CC(O)c1cccc(O)c1)c1ccc([N+](=O)[O-])c(C2CC(c3cccc4ccccc34)=NN2c2ccccc2)c1 (stereo not given)
assay result: 526

compound: COC(=O)c1cccc2c1C#Cc1c(N)cccc1OCCCO2
assay result: 487

## Task Which value of emission maximum has been reported for c1ccc2c(c1)ccc1oc3ccc4cc5oc6ccc7ccc8oc9ccc%10ccccc%10c9c8c7c6c5cc4c3c12 in the records?
## Result 432

###

Assay: solvent given as SMILES
Details: in CC#N
# Lookup of reported emission maximum keyed by entry
Report as: number unit

Take a look at these entries with their results.
structure string: Cc1ccc(C(=O)NN2C3=C(CC4=C2CCCC4=O)C(=O)CCC3)cc1
emission maximum: 343 nm

structure string: Fc1ccc(-c2cc3c4c(c2)CCc2cc(-c5ccc(F)cc5)cc(c2-4)CC3)cc1
emission maximum: 375.98 nm

## Task Which value of emission maximum has been reported for CCN(CC)c1ccc(/N=N/c2nc3ccc(Br)cc3s2)cc1 in the records?
## Result 580 nm

## Task Which value of emission maximum has been reported for Cc1ccc(/C=C/c2ccccc2-[n+]2cc([O-])on2)cc1 in the records?
## Result 504 nm

## Task Which value of emission maximum has been reported for CCOC(=O)c1c2c3c(ccc(OC)c3c3cc4ccccc4cc13)N(C)C2=O in the records?
## Result 413 nm

###

Assay: solvent given as SMILES
Settings: in ClCCl
quantity kind: emission maximum (nm)
Use nm as the unit, but write only the number.

structure string: CCC1=C(C)C2=C(C)c3c(C)c(-c4csc(N5CCOCC5)n4)c(C)n3[B-](F)(F)[N+]2=C1C
units symbol: nm
emission maximum: 537
--
structure string: C(=C\c1ncnc2ccccc12)/c1ccc(N(c2ccccc2)c2ccccc2)cc1
units symbol: nm
emission maximum: 571
--
structure string: CCCc1ccc(C#Cc2cc(C#Cc3ccc(N(C)C)cc3)c3ccc4c(C#Cc5ccc(N(C)C)cc5)cc(C#Cc5ccc(N(C)C)cc5)c5ccc2c3c54)cc1
units symbol: nm
emission maximum: 603
--
structure string: CCOC(=O)/C(C#N)=C/c1cc2c3ccccc3n(C)c2cc1OC
units symbol: nm
emission maximum: 472

Turning now to a further record.
## Task Which value of emission maximum has been reported for COc1ccccc1-c1c2ccc(=[N+]3CCCCC3)cc-2oc2cc(N3CCCCC3)ccc12 in the records?
## Result 585

###

# Lookup of reported emission maximum keyed by entry
Experiment: solvent given as SMILES
Conditions: in Cc1ccccc1
Use nm as the unit, but write only the number.

compound: CCCCC(CC)CN1C(=O)c2cc(Oc3ccc(C(C)(C)C)cc3)c3c4c(Oc5ccc(OC)cc5)cc5c6c(cc(Oc7ccc(OC)cc7)c(c7c(Oc8ccc(C(C)(C)C)cc8)cc(c2c37)C1=O)c64)C(=O)N(c1c(C(C)C)cccc1C(C)C)C5=O (configuration not stated)
emission maximum / nm: 608
//
compound: N#CC=C(c1ccc(N2c3ccccc3Oc3ccccc32)cc1)c1ccc(N2c3ccccc3Oc3ccccc32)cc1
emission maximum / nm: 574
//
compound: Nc1nc(/C=C/c2ccc(N(c3ccccc3)c3ccccc3)cc2)cc(/C=C/c2ccc(N(c3ccccc3)c3ccccc3)cc2)n1
emission maximum / nm: 467

Turning now to a further record.
## Task Which value of emission maximum has been reported for CC1=[N+]2C(=C(c3ccc(-c4c5ccccc5c(-c5ccccc5)c5ccccc45)cc3)c3ccc(C)n3[B-]2(F)F)C=C1 in the records?
## Result 532

###

# Lookup of reported emission maximum keyed by entry
Test: solvent given as SMILES
Details: in C1CCCCC1

compound: CN(C)c1ccc(/C=C/c2ncnc3ccccc23)cc1
emission maximum: 465 nm

## Task Which value of emission maximum has been reported for Oc1ccc2ccccc2c1-c1nc(-c2ccccc2)c2ccccn12 in the records?
## Result 407 nm

## Task Which value of emission maximum has been reported for CC1=N/C(=C\c2ccc(N(C)C)cc2)C(=O)N1C in the records?
## Result 437 nm

###

Assay: solvent given as SMILES
Conditions: in CCCCCC
quantity kind: emission maximum (nm)
Use nm as the unit, but write only the number.

molecule: CC1=CC(C)=[N+]2C1=Cc1c3ccccc3c(C#Cc3cccs3)n1[B-]2(F)F
emission maximum [nm]: 628
//
molecule: CC(=O)c1ccc2ccc3cccc4ccc1c2c34
emission maximum [nm]: 387
//
molecule: O=C1c2ccccc2-c2ccc(N3CCOCC3)c3cccc1c23
emission maximum [nm]: 529
//
molecule: Nc1ccc2c(c1)Cc1ccccc1-2
emission maximum [nm]: 344

## Task Which value of emission maximum has been reported for CCc1c(C(=O)OC)c(C(=O)OC)c2ccc(-c3ccccc3)nn12 in the records?
## Result 471

###

# Lookup of reported emission maximum keyed by entry
Assay: solvent given as SMILES
Settings: in C1CCOC1
Use nm as the unit, but write only the number.

Take a look at these entries with their results.
compound: COc1cc2oc(=O)c3c4ccc(C(=O)c5ccccc5)cc4c4ccc5cccc6c(c1)c2c3c4c56
emission maximum / nm: 443
//
compound: CCc1ccc(/C=N/c2cc(C(C)C)c(O)cc2C)cc1
emission maximum / nm: 412
//
compound: c1ccc(-c2ccc(-c3ccc(-n4c5ccccc5c5ccccc54)cc3)c3nsnc23)cc1
emission maximum / nm: 527
//
compound: CCC1(CC)c2ccccc2-c2c1c1c(c3c2C(CC)(CC)c2cc(B(c4c(C)cc(C)cc4C)c4c(C)cc(C)cc4C)ccc2-3)C(CC)(CC)c2cc(B(c3c(C)cc(C)cc3C)c3c(C)cc(C)cc3C)ccc2-1
emission maximum / nm: 387
//
compound: CCC1(CC)c2cc(-c3cccs3)ccc2-c2c1c1c(c3c2C(CC)(CC)c2cc(-c4cccs4)ccc2-3)C(CC)(CC)c2cc(-c3cccs3)ccc2-1
emission maximum / nm: 385
//
compound: O=C(O)c1ccccc1Nc1ccccc1
emission maximum / nm: 434
//
compound: COc1cc2oc(=O)c3c4ccc(C=O)cc4c4ccc5cccc6c(c1)c2c3c4c56
emission maximum / nm: 442
//
compound: c1ccc(-c2nn(-c3ccccc3)c3nc4ccc(N(c5ccccc5)c5cccc6ccccc56)cc4cc23)cc1
emission maximum / nm: 516
//
compound: O=P1(c2ccccc2)C(c2ccccc2)=Cc2ccccc21 (stereo not drawn)
emission maximum / nm: 417
//
compound: CCN(CC)c1ccc2cc(-c3csc(N)c3C#N)c(=O)oc2c1
emission maximum / nm: 458

Turning now to a further record.
## Task Which value of emission maximum has been reported for CCCCCCCCCCCCOc1ccc(C2=c3sc4ccccc4c3=[N+]3C2=Nc2c(-c4ccc(OCCCCCCCCCCCC)cc4)c4sc5ccccc5c4n2[B-]3(F)F)cc1 in the records?
## Result 813

###

# Lookup of reported emission maximum keyed by entry
Test: solvent given as SMILES
Conditions: in CN(C)C=O
Use nm as the unit, but write only the number.

## Task Which value of emission maximum has been reported for CC(C)(C)c1ccc(-c2nc3c4ccc(-c5cc6ccccc6c6ccccc56)cc4c4cc(-c5cc6ccccc6c6ccccc56)ccc4c3n2-c2ccc(C(C)(C)C)cc2)cc1 in the records?
## Result 404

## Task Which value of emission maximum has been reported for Fc1ccc(-c2cc3c4c(c2)CCc2cc(-c5ccc(F)cc5)cc(c2-4)CC3)cc1 in the records?
## Result 380.68

## Task Which value of emission maximum has been reported for c1ccc(-c2nc(-c3ccccc3)nc(-c3ccc(-n4c5ccc(-c6ccc7oc8ccccc8c7c6)cc5c5cc(-c6ccc7oc8ccccc8c7c6)ccc54)cc3)n2)cc1 in the records?
## Result 529

## Task Which value of emission maximum has been reported for Cn1c(/C=C/c2ccc(/C=C/c3nc4ccccc4[nH]3)cc2)[n+](C)c2ccccc21 in the records?
## Result 582

## Task Which value of emission maximum has been reported for Cc1nc2cccc(-c3nc4ccc([N+](=O)[O-])cc4[nH]3)c2c(=O)[nH]1 in the records?
## Result 450

## Task Which value of emission maximum has been reported for Cc1ccc(C2CC(c3ccc(O)cc3)=NN2c2ccc(S(N)(=O)=O)cc2)cc1 (configuration not stated) in the records?
## Result 422

## Task Which value of emission maximum has been reported for CCc1ccc(/C=N/c2cc(C(C)C)c(O)cc2C)cc1 in the records?
## Result 423

## Task Which value of emission maximum has been reported for CCCCCCC(CCCCCC)N1C(=O)c2cccc3c(-c4cc(OC)c(OC)c(OC)c4)ccc(c23)C1=O in the records?
## Result 618.8

## Task Which value of emission maximum has been reported for CN(C)c1ccc(-c2cc3ccc([N+](=O)[O-])cc3c(=O)o2)cc1 in the records?
## Result 605

## Task Which value of emission maximum has been reported for CC1=CC(C)=[N+]2C1=Cc1c3ccccc3c(C#Cc3ccc(F)cc3)n1[B-]2(F)F in the records?
## Result 624
